This section presents compounds with their documented IC50 values.
# Tgt: Mcl-1/Bim interaction, recombinant human Mcl-1 (171-327) (Homo sapiens, UniProt Q07820)
# Construct: made in house
# Sequence (Q07820 171-327): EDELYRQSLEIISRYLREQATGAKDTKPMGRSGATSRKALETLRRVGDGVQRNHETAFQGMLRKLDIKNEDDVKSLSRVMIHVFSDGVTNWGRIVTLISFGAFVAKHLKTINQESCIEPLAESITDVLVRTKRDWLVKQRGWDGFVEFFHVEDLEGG
# Assay protocol: Cell free Mcl-1: Bim Affinity Assay (Mcl-1 HTRF)
# Assay type: binding
# Experimental context: TR-FRET, 0.1 nM Mcl-1 (171-327), 0.05 nM biotin-Bim (51-76)
Give your result in nM as a bare value.

Prompt: Hello, I am looking for reported IC50 with Mcl-1/Bim interaction, recombinant human Mcl-1 (171-327) (Homo sapiens, UniProt Q07820) for C[C@@H]1[C@@H](C)C/C=C/[C@H](OCCNc2ccccn2)[C@@H]2CC[C@H]2CN2C[C@@]3(CCCc4cc(Cl)ccc43)COc3ccc(cc32)C(=O)NS1(=O)=O [Example 12] . Could you help?
Response: 3.37

Prompt: Hello, I am looking for reported IC50 with Mcl-1/Bim interaction, recombinant human Mcl-1 (171-327) (Homo sapiens, UniProt Q07820) for Cc1cc(CO[C@H]2/C=C/CC[C@@H](C)S(=O)(=O)NC(=O)c3ccc4c(c3)N(C[C@@H]3CC[C@H]32)C[C@@]2(CCCc3cc(Cl)ccc32)CO4)no1 [Example 411] . Could you help?
Response: 1.29

Prompt: Hello, I am looking for reported IC50 with Mcl-1/Bim interaction, recombinant human Mcl-1 (171-327) (Homo sapiens, UniProt Q07820) for COCCCO[C@H]1/C=C/C[C@H](C)N(CCCOC)S(=O)(=O)NC(=O)c2ccc3c(c2)N(C[C@@H]2CC[C@H]21)C[C@@]1(CCCc2cc(Cl)ccc21)CO3 (single isomer, unassigned) [Example 75] . Could you help?
Response: 1.66

Prompt: Hello, I am looking for reported IC50 with Mcl-1/Bim interaction, recombinant human Mcl-1 (171-327) (Homo sapiens, UniProt Q07820) for O=C1NS(=O)(=O)C2COCC2CC=CC(O)C2CCC2CN2CC3(CCCc4cc(Cl)ccc43)COc3ccc1cc32 (single isomer, unassigned) [Example 1036] . Could you help?
Response: 1.36

Prompt: Hello, I am looking for reported IC50 with Mcl-1/Bim interaction, recombinant human Mcl-1 (171-327) (Homo sapiens, UniProt Q07820) for COCCO[C@H]1CC[C@@H](C)C[C@@H](COC)S(=O)(=O)NC(=O)c2ccc3c(c2)N(C[C@@H]2CC[C@H]21)C[C@@]1(CCCc2cc(Cl)ccc21)CO3 (single isomer, unassigned) [Example 1040] . Could you help?
Response: 1.04

====

# Tgt: Mcl-1/Bim interaction, recombinant human Mcl-1 (171-327) (Homo sapiens, UniProt Q07820)
# Construct: made in house
# Assay protocol: Cell free Mcl-1: Bim Affinity Assay (Mcl-1 HTRF)
# Format: binding
# Experimental context: TR-FRET, 0.1 nM Mcl-1 (171-327), 0.05 nM biotin-Bim (51-76)
# Procedure: Cell free Mcl-1: Bim Affinity Assay (Mcl-1 HTRF) The inhibition of the Mcl-1/Bim interaction was measured using a time-resolved fluorescence resonance energy transfer (TR-FRET) assay. […] A biotinylated peptide derived from human Bim (residues 51-76) was purchased from CPC Scientific (San Jose, CA). […] The reaction plates were further incubated overnight and then were read on an Envision® multimode reader (PerkinElmer). […]
This section presents compounds with their documented pIC50 values.
# reply with the number alone; pIC50 is -log10 of concentration in mol/L

// known answers, use as guide
Compound	Tgt	pIC50
O=C1CCCS(=O)(=O)NC(=O)c2ccc3c(c2)N(C[C@@H]2CC[C@H]2CN1)C[C@@]1(CCCc2cc(Cl)ccc21)CO3	Mcl-1/Bim interaction, recombinant human Mcl-1 (171-327) (Homo sapiens, UniProt Q07820)	8.35
C[C@]12CC[C@H]1CN1C[C@@]3(CCCc4cc(Cl)ccc43)COc3ccc(cc31)C(=O)NS(=O)(=O)CCCCC[C@@H]2O (single isomer, unassigned) [Example 123]	Mcl-1/Bim interaction, recombinant human Mcl-1 (171-327) (Homo sapiens, UniProt Q07820)	8.37
Cc1noc(C)c1CO[C@@H]1/C=C/CCCS(=O)(=O)NC(=O)c2ccc3c(c2)N(C[C@@H]2CC[C@H]21)C[C@@]1(CCCc2cc(Cl)ccc21)CO3	Mcl-1/Bim interaction, recombinant human Mcl-1 (171-327) (Homo sapiens, UniProt Q07820)	7.91
C[C@@H]1CC/C=C/[C@H](OCC(=O)O)[C@@H]2CC[C@H]2CN2C[C@@]3(CCCc4cc(Cl)ccc43)COc3ccc(cc32)C(=O)NS1(=O)=O	Mcl-1/Bim interaction, recombinant human Mcl-1 (171-327) (Homo sapiens, UniProt Q07820)	9.90
O=C1NS(=O)(=O)CCCCNC(=O)[C@@H]2CC[C@H]2CN2C[C@@]3(CCCc4cc(Cl)ccc43)COc3ccc1cc32	Mcl-1/Bim interaction, recombinant human Mcl-1 (171-327) (Homo sapiens, UniProt Q07820)	7.81
COC(=O)CO[C@H]1/C=C/CC[C@@H](C)S(=O)(=O)NC(=O)c2ccc3c(c2)N(C[C@@H]2CC[C@H]21)C[C@@]1(CCCc2cc(Cl)ccc21)CO3	Mcl-1/Bim interaction, recombinant human Mcl-1 (171-327) (Homo sapiens, UniProt Q07820)	9.51
CCOC(=O)CO[C@@H]1/C=C/CCCS(=O)(=O)NC(=O)c2ccc3c(c2)N(C[C@@H]2CC[C@H]21)C[C@@]1(CCCc2cc(Cl)ccc21)CO3	Mcl-1/Bim interaction, recombinant human Mcl-1 (171-327) (Homo sapiens, UniProt Q07820)	8.42
CC[C@@H]1CC/C=C/[C@H](OCCC(=O)N(C)C)[C@@H]2CC[C@H]2CN2C[C@@]3(CCCc4cc(Cl)ccc43)COc3ccc(cc32)C(=O)NS1(=O)=O	Mcl-1/Bim interaction, recombinant human Mcl-1 (171-327) (Homo sapiens, UniProt Q07820)	9.42
CC(C)(C)S(=O)(=O)CC[C@H]1CC/C=C/[C@H](O)[C@@H]2CC[C@H]2CN2C[C@@]3(CCCc4cc(Cl)ccc43)COc3ccc(cc32)C(=O)NS1(=O)=O (single isomer, unassigned)	Mcl-1/Bim interaction, recombinant human Mcl-1 (171-327) (Homo sapiens, UniProt Q07820)	9.07
O=C1NS(=O)(=O)[C@@H]2CCC[C@@H](/C=C/[C@H](O)[C@@H]3CC[C@H]3CN3C[C@@]4(CCCc5cc(Cl)ccc54)COc4ccc1cc43)C2 (single isomer, unassigned)	Mcl-1/Bim interaction, recombinant human Mcl-1 (171-327) (Homo sapiens, UniProt Q07820)	9.23

Now for another entry.
Prompt: Hello, I am looking for reported pIC50 with Mcl-1/Bim interaction, recombinant human Mcl-1 (171-327) (Homo sapiens, UniProt Q07820) for `COCCN1[C@@H](C)C/C=C/[C@H](OC)[C@@H]2CC[C@H]2CN2C[C@@]3(CCCc4cc(Cl)ccc43)COc3ccc(cc32)C(=O)NS1(=O)=O` . Could you help?
Response: 9.37

====

# Tgt: Mcl-1/Bim interaction, recombinant human Mcl-1 (171-327) (Homo sapiens)
# Construct: made in house
# Assay protocol: Cell free Mcl-1: Bim Affinity Assay (Mcl-1 HTRF)
# Assay type: binding
# Experimental context: cell free Mcl-1:Bim TR-FRET, recombinant human Mcl-1 (171-327)
Measurement kind: IC50 (nM)
Give your result in nM as a bare value.

Molecule	IC50, nM
CC(C)CC1CC(C)C=CC(O)C2CCC2CN2CC3(CCCc4cc(Cl)ccc43)COc3ccc(cc32)C(=O)NS1(=O)=O (single isomer, unassigned)	7.52
O=C1NS(=O)(=O)CCOCCC[C@@H]2CC[C@H]2CN2C[C@@]3(CCCc4ccccc43)COc3ccc1cc32 (stereo in doubt)	20.1
C[C@H]1C/C=C/[C@H](O)[C@@H]2CC[C@H]2CN2C[C@@]3(CCCc4cc(Cl)ccc43)COc3ccc(cc32)C(=O)NS(=O)(=O)[C@@H]1c1ccccc1 (single isomer, unassigned) [Example 653]	0.722
CC(C)(O)[C@@H]1CC/C=C/[C@H](O)[C@@H]2CC[C@H]2CN2C[C@@]3(CCCc4cc(Cl)ccc43)COc3ccc(cc32)C(=O)NS1(=O)=O (single isomer, unassigned) [Example 696]	0.305
CO[C@H]1/C=C/[C@H](O)[C@@H]2CC[C@H]2CN2C[C@@]3(CCCc4cc(Cl)ccc43)COc3ccc(cc32)C(=O)NS(=O)(=O)[C@@H](C)C1 (single isomer, unassigned)	5.21
C[C@H]1/C=C/[C@H](O)[C@@H]2CC[C@H]2CN2C[C@@]3(CCCc4cc(Cl)ccc43)COc3ccc(cc32)C(=O)NS(=O)(=O)CC1 (single isomer, unassigned)	0.774
O=C1NS(=O)(=O)C(c2ccccc2)CC/C=C/[C@H](O)[C@@H]2CC[C@H]2CN2C[C@@]3(CCCc4cc(Cl)ccc43)COc3ccc1cc32 (single isomer, unassigned) [Example 675]	0.437
C[C@@H]1[C@@H](C)C/C=C/[C@H](OCCN2CC3(COC3)C2)[C@@H]2CC[C@H]2CN2C[C@@]3(CCCc4cc(Cl)ccc43)COc3ccc(cc32)C(=O)NS1(=O)=O	0.49

Prompt: Recorded IC50 for COCC[C@@H]1C[C@@H](C)/C=C/[C@H](O)[C@@H]2CC[C@H]2CN2C[C@@]3(CCCc4cc(Cl)ccc43)COc3ccc(cc32)C(=O)NS1(=O)=O (single isomer, unassigned) , please?
Response: 0.311

Prompt: Recorded IC50 for CN(C(=O)C1CC1)C1CCCCCS(=O)(=O)NC(=O)c2ccc3c(c2)N(CC2CCC21)CC1(CCCc2cc(Cl)ccc21)CO3 (single isomer, unassigned) , please?
Response: 36.4
